Hey, just so you know, these numbers are from patent US12486267B2.

- tested.target: human TLR8 (Homo sapiens)
- Sequence (Q9NR97 27-1041): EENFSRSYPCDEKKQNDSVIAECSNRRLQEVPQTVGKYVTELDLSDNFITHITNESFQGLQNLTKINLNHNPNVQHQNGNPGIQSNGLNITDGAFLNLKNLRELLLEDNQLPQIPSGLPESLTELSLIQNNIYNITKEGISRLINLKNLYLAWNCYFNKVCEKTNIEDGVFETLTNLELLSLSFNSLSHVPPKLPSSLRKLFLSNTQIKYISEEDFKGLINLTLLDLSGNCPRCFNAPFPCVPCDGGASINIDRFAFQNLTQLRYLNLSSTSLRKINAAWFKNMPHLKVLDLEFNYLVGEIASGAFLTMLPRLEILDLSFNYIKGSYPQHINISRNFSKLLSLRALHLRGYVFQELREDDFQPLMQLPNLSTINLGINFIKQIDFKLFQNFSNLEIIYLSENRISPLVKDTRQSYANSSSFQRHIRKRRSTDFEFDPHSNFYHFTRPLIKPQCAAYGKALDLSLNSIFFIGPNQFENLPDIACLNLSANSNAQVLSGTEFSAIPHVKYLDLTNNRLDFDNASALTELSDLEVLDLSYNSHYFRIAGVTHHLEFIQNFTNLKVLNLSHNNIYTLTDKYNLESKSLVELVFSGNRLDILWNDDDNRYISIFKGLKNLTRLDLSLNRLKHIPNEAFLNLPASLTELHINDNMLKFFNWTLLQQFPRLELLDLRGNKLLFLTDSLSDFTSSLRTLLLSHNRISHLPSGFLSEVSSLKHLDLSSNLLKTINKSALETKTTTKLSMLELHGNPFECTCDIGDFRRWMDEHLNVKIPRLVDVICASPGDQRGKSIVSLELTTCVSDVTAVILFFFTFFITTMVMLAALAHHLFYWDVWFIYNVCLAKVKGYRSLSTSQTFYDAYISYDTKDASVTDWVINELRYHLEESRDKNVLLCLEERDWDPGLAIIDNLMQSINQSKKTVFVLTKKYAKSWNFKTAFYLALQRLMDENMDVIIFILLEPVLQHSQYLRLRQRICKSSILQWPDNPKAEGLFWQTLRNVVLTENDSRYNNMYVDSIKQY
- test.description: TLR8 inhibition reporter assay (HEK-Blue cells, SEAP reporter)
- experimental.conditions: HEK-Blue cells overexpressing human TLR8; stimulated with R848 15.9 μM; 22 hour incubation; SEAP readout
pIC50: −log10 of the molar value.
readout.kind: pIC50

Req: I'm curious: which pIC50 was measured for COc1ccc(-c2cn3cc(C4C[C@H]5CC[C@@H](C4)N5C4CCN(CC(C)C)CC4)cc(C)c3n2)cc1OC (mixture of isomers) tested on human TLR8 (Homo sapiens)?
Resp: < 4.30

Req: I'm curious: which pIC50 was measured for COc1ccc(-c2cn3c(n2)CCC(C2CCN(C4CCN(CC5CC5)CC4)CC2)C3)cc1OC (single isomer, unassigned) [Example 57] tested on human TLR8 (Homo sapiens)?
Resp: < 4.30

Req: I'm curious: which pIC50 was measured for `COc1ccc(-c2cn3cc(C4CCN(C5CCN(CC(C)C)CC5)CC4)ccc3n2)cc1OC` tested on human TLR8 (Homo sapiens)?
Resp: < 4.30

Req: I'm curious: which pIC50 was measured for `CC(C)N1CCC(N2CCC(c3cn4cc(-c5ccc(S(C)(=O)=O)cc5)nc4cc3F)CC2)CC1` tested on human TLR8 (Homo sapiens)?
Resp: < 4.30

Req: I'm curious: which pIC50 was measured for Cc1cc(C2CCN(C3CC4CCC(C3)N4C(C)C)CC2)cn2cc(-c3ccc(S(C)(=O)=O)cc3)nc12 (single isomer, unassigned) tested on human TLR8 (Homo sapiens)?
Resp: 5.02

Req: I'm curious: which pIC50 was measured for CS(=O)(=O)c1ccc(-c2cn3cc(C4CCN(C5CC6CCC(C5)N6C5COC5)CC4)cc(F)c3n2)cc1 (single isomer, unassigned) [Example 120] tested on human TLR8 (Homo sapiens)?
Resp: < 4.30

Req: I'm curious: which pIC50 was measured for COc1ccc(-c2cn3c(n2)CC[C@H](C2CCN(C4CC5CCC(C4)N5C(C)C)CC2)C3)cc1OC (single isomer, unassigned) [Example 135] tested on human TLR8 (Homo sapiens)?
Resp: < 4.60

Req: I'm curious: which pIC50 was measured for `COc1ccc(-c2cn3cc(C4CCN(C5CCN(C(C)C)CC5)CC4)cc(C)c3n2)cc1F` tested on human TLR8 (Homo sapiens)?
Resp: < 4.30

Req: I'm curious: which pIC50 was measured for CC(C)CN1C2CCC1CC(N1CCC([C@@H]3CCc4nc(-c5ccc(S(C)(=O)=O)cc5)cn4C3)CC1)C2 (single isomer, unassigned) tested on human TLR8 (Homo sapiens)?
Resp: < 4.30

Req: I'm curious: which pIC50 was measured for CC(C)CN1CCCC(N2CCC(c3cc(F)c4nc(-c5ccc(S(C)(=O)=O)cc5)cn4c3)CC2)CC1 (single isomer, unassigned) [Example 126] tested on human TLR8 (Homo sapiens)?
Resp: 4.33

Could I get pIC50 for every one of these entries?
1. CS(=O)(=O)c1ccc(-c2cn3cc(C4CCN(C5CCN(C6CCOCC6)CC5)CC4)cc(F)c3n2)cc1
2. Cc1cc(-c2ccc(N3CCN(C4COC4)CC3)cc2)cn2cc(-c3ccc(S(C)(=O)=O)cc3)nc12
3. COc1ccc(-c2cn3cc(C4CCN(C5CC6(C5)CN(CC(C)C)C6)CC4)cc(C)c3n2)cc1OC
4. Cc1cc(C2CCN(C3CCN(CC(C)C)CC3)CC2)cn2nc(-c3ccc(S(C)(=O)=O)cc3)nc12
5. COc1ccc(-c2cn3c(n2)CCC(C2CCN(C4CCN(C(=O)C(C)C)CC4)CC2)C3)cc1OC (single isomer, unassigned) [Example 41]
6. CS(=O)(=O)c1ccc(-c2cn3cc(C4CCN(C5CCCN(C6CCOCC6)CC5)CC4)cc(F)c3n2)cc1 (single isomer, unassigned) [Example 129]
7. COc1ccc(-c2cn3cc(C4CCN(C5CC6CCC(C5)N6CC5CC5)CC4)cc(C)c3n2)cc1OC (single isomer, unassigned) [Example 20]
8. COc1ccc(-c2cn3c(n2)CCC(C2CCN(C4CC5(C4)CN(CC(C)C)C5)CC2)C3)cc1OC (single isomer, unassigned) [Example 54]

Resp:
1. < 4.30
2. < 4.30
3. < 4.30
4. < 4.30
5. < 4.30
6. < 4.30
7. < 4.30
8. < 4.30

Could I get pIC50 for every one of these entries?
1. CC(C)CN1CCC(N2CCC(c3cn4cc(-c5ccc(S(C)(=O)=O)cc5)nc4cc3F)CC2)CC1
2. Cc1cc(C2CC3CCC(C2)N3C2CCN(C(C)C)CC2)cn2nc(-c3ccc(S(C)(=O)=O)cc3)nc12 (centres unmarked)
3. CS(=O)(=O)c1ccc(-c2cn3cc(C4CCN(C5CCN(C6COC6)CC5)CC4)cc(F)c3n2)cc1
4. COc1ccc(-c2cn3cc(C4CCN(C5CCN(C(C)C)CC5)CC4)cc(C)c3n2)cc1OC
5. COc1ccc(-c2cn3cc(C4CCN(C5CC6(C5)CN(C(C)C)C6)CC4)cc(C)c3n2)cc1OC
6. COc1ccc(-c2cn3c(n2)CCC(C2CCN(C4CCN(C(=O)C5CC5)CC4)CC2)C3)cc1OC (single isomer, unassigned) [Example 44]

Resp:
1. < 4.30
2. < 4.30
3. < 4.30
4. < 4.30
5. < 4.30
6. < 4.30

Could I get pIC50 for every one of these entries?
1. Cc1cc(C2CCN(C3CCN(C(C)C)CC3)CC2)cc2nc(-c3ccc(S(C)(=O)=O)cc3)cn12
2. COc1ccc(-c2cn3c(n2)CC[C@@H](C2CCN(C4CC5CCC(C4)N5CC(C)C)CC2)C3)cc1OC (single isomer, unassigned) [Example 77]

Resp:
1. < 4.30
2. < 4.60
